Numbers sourced from PubChem BioAssay AID332.

tested on: mice, ADJ-PC-20 plasma cell tumor sc, T/C %; assay: NCI In Vivo Anticancer Drug Screen. Data for tumor model ADJ-PC-20 Plasma Cell (subcutaneous) in unknown mice; conditions: endpoint: mean tumor weight; dose: 1000.0 mg/kg/injection; schedule: Q01DX010 (ip); vehicle: carboxymethylcellulose (CMC); higher = larger tumour
Results filed as inconclusive are left out.
Collected T/C values appear next to each entry.

Take a look at these entries with their results.
compound=O=CN(O)CC(=O)O experimental_system="mice, ADJ-PC-20 plasma cell tumor sc, T/C %" readout_kind=T/C result="63 % of control"
compound="OCC1OC(n2cnc3c(Cl)ncnc32)C(O)C1O (stereo not given)" experimental_system="mice, ADJ-PC-20 plasma cell tumor sc, T/C %" readout_kind=T/C result="35 % of control"
compound=O=c1cn[nH]c(=O)[nH]1 experimental_system="mice, ADJ-PC-20 plasma cell tumor sc, T/C %" readout_kind=T/C result="38 % of control"
compound="O=CCC(O)C(O)C(O)CO (stereo not given)" experimental_system="mice, ADJ-PC-20 plasma cell tumor sc, T/C %" readout_kind=T/C result="96 % of control"

For the next question, use this compound.
**Q:** Recorded T/C of O=c1[nH]c(=O)n(C2CC(O)C(CO)O2)cc1Br (stereo not given) , please.
**A:** 74 % of control

---

system: mice, ADJ-PC-20 plasma cell tumor sc, T/C %; assay: NCI In Vivo Anticancer Drug Screen. Data for tumor model ADJ-PC-20 Plasma Cell (subcutaneous) in unknown mice; settings: endpoint: mean tumor weight; dose: 6.3 mg/kg/injection; schedule: Q01DX010 (ip); vehicle: carboxymethylcellulose (CMC); higher = larger tumour
Records with an inconclusive call do not appear.
readout.kind: T/C

Take a look at these entries with their results.
smi=Cn1c(N)nc2nc[nH]c2c1=S readout_kind=T/C result="118 % of control"
smi=CCCCn1cnc2c(=S)nc[nH]c21 readout_kind=T/C result="41 % of control"
smi=S=P(N1CCOCC1)(N1CC1)N1CC1 readout_kind=T/C result="116 % of control"

For the next question, use this compound.
**Q:** Recorded T/C of `C[N+](C)(C)c1ncnc2nc[nH]c12` , please.
**A:** 70 % of control

---

test system: mice, ADJ-PC-20 plasma cell tumor sc, T/C %; assay: NCI In Vivo Anticancer Drug Screen. Data for tumor model ADJ-PC-20 Plasma Cell (subcutaneous) in unknown mice; conditions: endpoint: mean tumor weight; dose: 25.0 mg/kg/injection; schedule: Q01DX010 (ip); vehicle: carboxymethylcellulose (CMC); higher = larger tumour
Records with an inconclusive call do not appear.
Collected T/C values appear next to each entry.

Take a look at these entries with their results.
compound=CN(C)c1ccc(Nc2c3ccccc3nc3ccccc23)cc1 result="115 % of control"
compound=C[n+]1c2ccccc2nc2c(N)cc(N)cc21 result="99 % of control"
compound=C[N+](C)(C)c1ncnc2nc[nH]c12 result="52 % of control"

**Q:** Recorded T/C of `CCCCn1cnc2c(=S)nc[nH]c21` , please.
**A:** 1 % of control

**Q:** Recorded T/C of O=c1[nH]c(=O)n(C2CC(O)C(CO)O2)cc1F (configuration not stated) , please.
**A:** 67 % of control

**Q:** Recorded T/C of `Nc1ncnc2[nH]ncc12` , please.
**A:** 22 % of control

**Q:** Recorded T/C of `Cn1c(N)nc2nc[nH]c2c1=S` , please.
**A:** 116 % of control

**Q:** Recorded T/C of CSc1ncnc2c1ncn2C1OC(CO)C(O)C1O (configuration not stated) , please.
**A:** 14 % of control

**Q:** Recorded T/C of `O=C(Nc1ccc(C2=NCCN2)cc1)c1ccc(C(=O)Nc2ccc(C3=NCCN3)cc2)cc1` , please.
**A:** 73 % of control

**Q:** Recorded T/C of `CCCCNc1ncnc2c1cnn2C` , please.
**A:** 96 % of control

**Q:** Recorded T/C of `CC(=O)Nc1ccc2nc3ccc(NC(C)=O)cc3[n+](-c3ccccc3)c2c1` , please.
**A:** 76 % of control

**Q:** Recorded T/C of `CS(=O)(=O)OCCCl` , please.
**A:** 114 % of control

---

system: mice, ADJ-PC-20 plasma cell tumor sc, T/C %; test: NCI In Vivo Anticancer Drug Screen. Data for tumor model ADJ-PC-20 Plasma Cell (subcutaneous) in unknown mice; conditions: endpoint: mean tumor weight; dose: 4.0 mg/kg/injection; schedule: Q01DX010 (ip); vehicle: carboxymethylcellulose (CMC); higher = larger tumour
Inconclusive results are not listed.
readout.kind: T/C

Take a look at these entries with their results.
molecule=Cn1cnc([N+](=O)[O-])c1Sc1nc(N)nc2nc[nH]c12 readout_kind=T/C result="2 % of control"
molecule=c1ccc(CNc2ncnc3[nH]ncc23)cc1 readout_kind=T/C result="110 % of control"
molecule=CCn1cnc2c(=S)nc[nH]c21 readout_kind=T/C result="11 % of control"
molecule="OCC1OC(n2cnc3c(=S)nc[nH]c32)C(O)C1O (stereo unspecified)" readout_kind=T/C result="2 % of control"
molecule=CCCSc1ncnc2nc[nH]c12 readout_kind=T/C result="81 % of control"

For the next question, use this molecule.
**Q:** Recorded T/C of `O=C(Nc1ccc(C2=NCCCN2)cc1)c1ccc(NC(=O)c2ccc(C3=NCCCN3)cc2)cc1` , please.
**A:** 83 % of control

---

tested on: mice, ADJ-PC-20 plasma cell tumor sc, T/C %; assay: NCI In Vivo Anticancer Drug Screen. Data for tumor model ADJ-PC-20 Plasma Cell (subcutaneous) in unknown mice; conditions: endpoint: mean tumor weight; dose: 1.0 mg/kg/injection; schedule: Q01DX010 (ip); vehicle: carboxymethylcellulose (CMC); higher = larger tumour
Records with an inconclusive call do not appear.
readout.kind: T/C

compound=CCn1cnc2c(=S)nc[nH]c21 readout_kind=T/C result="71 % of control"
compound="OCC1OC(n2cnc3c(=S)nc[nH]c32)C(O)C1O (centres undefined)" readout_kind=T/C result="51 % of control"

**Q:** Recorded T/C of `Cn1cnc([N+](=O)[O-])c1Sc1nc(N)nc2nc[nH]c12` , please.
**A:** 33 % of control

**Q:** Recorded T/C of `O=C(Nc1ccc(C2=NCCCN2)cc1)c1ccc(NC(=O)c2ccc(C3=NCCCN3)cc2)cc1` , please.
**A:** 84 % of control

---

Collected T/C values appear next to each entry.
test system: mice, ADJ-PC-20 plasma cell tumor sc, T/C %; experiment: NCI In Vivo Anticancer Drug Screen. Data for tumor model ADJ-PC-20 Plasma Cell (subcutaneous) in unknown mice; details: endpoint: mean tumor weight; dose: 125.0 mg/kg/injection; schedule: Q01DX010 (sc); vehicle: steriod suspending solution; higher = larger tumour
Results filed as inconclusive are left out.

Take a look at these entries with their results.
smi=C[C@]12CCC(=O)C=C1CC[C@@H]1[C@@H]2C(=O)C[C@@]2(C)[C@H]1CC[C@]2(O)C(=O)CO result="11 % of control"
smi=CC[C@@H](c1ccc(O)cc1)[C@@H](CC)c1ccc(O)cc1 result="87 % of control"

**Q:** Recorded T/C of `C[C@]12CCC(=O)C=C1CC[C@@H]1[C@@H]2CC[C@@]2(C)[C@H]1CC[C@]2(C)O` , please.
**A:** 99 % of control

**Q:** Recorded T/C of `CCC(=O)O[C@H]1CC[C@H]2[C@@H]3CCC4=CC(=O)CC[C@]4(C)[C@H]3CC[C@]12C` , please.
**A:** 79 % of control

---

test system: mice, ADJ-PC-20 plasma cell tumor sc, T/C %; test: NCI In Vivo Anticancer Drug Screen. Data for tumor model ADJ-PC-20 Plasma Cell (subcutaneous) in unknown mice; conditions: endpoint: mean tumor weight; dose: 500.0 mg/kg/injection; schedule: Q01DX010 (ip); vehicle: carboxymethylcellulose (CMC); higher = larger tumour
Records with an inconclusive call do not appear.
readout.kind: T/C

compound="O=c1[nH]c(=O)n(C2CC(O)C(CO)O2)cc1Br (stereo not given)" experimental_system="mice, ADJ-PC-20 plasma cell tumor sc, T/C %" result="88 % of control"
compound="OCC1OC(n2cnc3c(Cl)ncnc32)C(O)C1O (stereo not given)" experimental_system="mice, ADJ-PC-20 plasma cell tumor sc, T/C %" result="93 % of control"
compound=O=c1cn[nH]c(=O)[nH]1 experimental_system="mice, ADJ-PC-20 plasma cell tumor sc, T/C %" result="66 % of control"

**Q:** Recorded T/C of O=CCC(O)C(O)C(O)CO (stereo not given) , please.
**A:** 80 % of control

**Q:** Recorded T/C of `O=CN(O)CC(=O)O` , please.
**A:** 89 % of control
